Target: 4,4'-diapophytoene desaturase (4,4'-diaponeurosporene-forming) (Staphylococcus aureus (strain Newman), UniProt O07855)
Assay: Inhibition of CrtN in Staphylococcus aureus Newman assessed as reduction in staphyloxanthin levels after 48 hrs by spectrophotometric method-based pigment inhibition assay
Design: species or system Staphylococcus aureus subsp. aureus str. Newman
MEASURE: pIC50
Answer as the number alone; pIC50 is minus log10 of concentration in mol/L.

Query :: Which pIC50 is reported for this compound? CN(CC#Cc1ccc(-c2ccccc2)cc1)Cc1cccc2cc[nH]c12
Result :: 6.99

Query :: Same read-out for CN(C/C=C/c1ccc(C(F)(F)F)cc1)Cc1cc2ccccc2o1 ?
Result :: 7.14

Query :: Same read-out for Cc1ccc(/C=C/CN(C)Cc2cccc3cc[nH]c23)cc1 ?
Result :: 6.70

###

Kindly supply the reported IC50 values for the records listed here.
Molecular target: 4,4'-diapophytoene desaturase (4,4'-diaponeurosporene-forming) (Staphylococcus aureus (strain Newman))
Sequence (O07855 whole entry): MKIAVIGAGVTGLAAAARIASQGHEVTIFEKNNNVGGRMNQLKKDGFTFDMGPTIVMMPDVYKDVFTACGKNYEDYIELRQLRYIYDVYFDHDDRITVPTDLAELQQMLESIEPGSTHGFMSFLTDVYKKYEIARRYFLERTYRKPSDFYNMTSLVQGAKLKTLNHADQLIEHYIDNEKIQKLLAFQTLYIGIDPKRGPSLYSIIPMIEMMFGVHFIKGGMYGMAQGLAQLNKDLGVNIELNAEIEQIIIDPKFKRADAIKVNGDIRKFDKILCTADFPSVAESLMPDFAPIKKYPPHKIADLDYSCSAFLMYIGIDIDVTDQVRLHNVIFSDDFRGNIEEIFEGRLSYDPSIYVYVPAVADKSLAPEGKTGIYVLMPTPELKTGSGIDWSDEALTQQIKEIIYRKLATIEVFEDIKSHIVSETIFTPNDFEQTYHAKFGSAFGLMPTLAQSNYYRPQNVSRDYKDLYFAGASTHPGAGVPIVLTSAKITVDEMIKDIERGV
Experiment: Inhibition of CrtN in Staphylococcus aureus Newman assessed as reduction in staphyloxanthin levels after 48 hrs by spectrophotometric method-based pigment inhibition assay
Set-up: species or system Staphylococcus aureus subsp. aureus str. Newman

Query :: Which IC50 is reported for this compound? COc1cccc(/C=C/CN(C)Cc2coc3ccccc23)c1
Result :: > 1000 nM

Query :: Same read-out for CN(C/C=C/c1ccc([N+](=O)[O-])cc1)Cc1cccc2cc[nH]c12 ?
Result :: > 1000 nM

Query :: Same read-out for CN(C/C=C/c1ccccc1[N+](=O)[O-])Cc1cccc2cc[nH]c12 ?
Result :: > 1000 nM

Query :: Same read-out for CN(C/C=C/c1ccc([N+](=O)[O-])cc1)Cc1coc2ccccc12 ?
Result :: 9.5 nM

Query :: Same read-out for C/C=C/CN(C)Cc1cccc2cc[nH]c12 ?
Result :: > 1000 nM

Query :: Same read-out for CN(C/C=C/c1ccc(C(F)(F)F)cc1)Cc1coc2ccccc12 ?
Result :: 9.8 nM

###

Target: 4,4'-diapophytoene desaturase (4,4'-diaponeurosporene-forming) (Staphylococcus aureus (strain Newman))
Assay: Inhibition of CrtN in Staphylococcus aureus Newman assessed as reduction in staphyloxanthin levels after 48 hrs by spectrophotometric method-based pigment inhibition assay
Parameters: species or system Staphylococcus aureus subsp. aureus str. Newman
Kindly supply the reported IC50 values for the records listed here.

Query :: Which IC50 is reported for this compound? FC(F)(F)c1ccc(/C=C/CNCC2=COC3C=CC=CC23)cc1 (stereo unspecified)
Result :: > 1000 nM

Query :: Same read-out for CN(C/C=C/c1ccc(F)cc1)Cc1cccc2cc[nH]c12 ?
Result :: > 1000 nM

Query :: Same read-out for CN(C/C=C/c1ccccc1F)Cc1coc2ccccc12 ?
Result :: > 1000 nM

Query :: Same read-out for COc1ccc(/C=C/CN(C)Cc2cccc3cc[nH]c23)c(F)c1 ?
Result :: 73.1 nM

Query :: Same read-out for COc1ccc(/C=C/CN(C)Cc2cccc3cc[nH]c23)cc1F ?
Result :: > 1000 nM

Query :: Same read-out for Cc1ccccc1/C=C/CN(C)Cc1coc2ccccc12 ?
Result :: 86.4 nM
